- tested_target: DPP-4 (human recombinant) (Homo sapiens)
- Sequence (P27487 whole entry): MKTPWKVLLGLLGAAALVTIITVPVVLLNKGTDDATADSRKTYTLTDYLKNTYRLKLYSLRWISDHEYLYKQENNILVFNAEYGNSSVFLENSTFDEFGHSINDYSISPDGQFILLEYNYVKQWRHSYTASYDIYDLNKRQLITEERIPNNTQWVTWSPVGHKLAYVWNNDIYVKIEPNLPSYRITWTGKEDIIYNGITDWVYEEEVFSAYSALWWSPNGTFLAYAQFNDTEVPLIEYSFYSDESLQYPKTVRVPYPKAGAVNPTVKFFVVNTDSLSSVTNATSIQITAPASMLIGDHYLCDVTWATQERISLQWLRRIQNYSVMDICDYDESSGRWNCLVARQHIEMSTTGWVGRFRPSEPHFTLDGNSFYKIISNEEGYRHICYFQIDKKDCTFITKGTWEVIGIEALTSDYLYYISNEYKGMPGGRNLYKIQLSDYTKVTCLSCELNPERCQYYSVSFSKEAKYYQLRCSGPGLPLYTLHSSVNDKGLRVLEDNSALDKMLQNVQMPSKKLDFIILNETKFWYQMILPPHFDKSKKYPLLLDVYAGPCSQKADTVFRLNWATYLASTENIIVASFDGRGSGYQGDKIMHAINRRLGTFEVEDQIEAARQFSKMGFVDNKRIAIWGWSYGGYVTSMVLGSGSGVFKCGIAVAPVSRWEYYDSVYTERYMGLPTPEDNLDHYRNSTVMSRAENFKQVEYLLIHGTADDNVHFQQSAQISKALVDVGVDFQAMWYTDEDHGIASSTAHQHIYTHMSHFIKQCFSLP
- measurement_notes: In vitro assay for DPP-4 inhibitory activity (fluorescence, Gly-Pro-AMC)
- condition_description: DPP-4 inhibition, fluorescence method
readout_kind: pIC50
Keep it numeric: pIC50 is minus log10 of the concentration in mol/L.

Result for OCC1OC(Oc2cc3c(O)cc(O)cc3[o+]c2-c2ccc(O)c(O)c2)C(O)C(O)C1O (centres unmarked) [F2, Cyanidin 3-O-glucoside chloride] , tested on DPP-4 (human recombinant) (Homo sapiens), pIC50: 4.09

====

- tested_target: DPP-4 (human recombinant) (Homo sapiens)
- measurement_notes: Inhibition kinetic analysis (V vs [DPP-4], Lineweaver-Burk, Dixon and Cornish-Bowden plots)
- condition_description: Dixon equation; read-out: Kic (competitive inhibition constant)
pKi by entry:
Keep it numeric: pKi is minus log10 of the concentration in mol/L.

For reference, reported pKi for OCC1OC(Oc2cc3c(O)cc(O)cc3[o+]c2-c2ccc(O)c(O)c2)C(O)C(O)C1O (stereo not drawn) [F2, Cyanidin 3-O-glucoside chloride] stands at 4.13

For reference, reported pKi for COc1cc(-c2oc3cc(O)cc(O)c3c(=O)c2O[C@@H]2O[C@H](CO[C@@H]3O[C@@H](C)[C@H](O)[C@@H](O)[C@H]3O)[C@@H](O)[C@H](O)[C@H]2O)ccc1O [E21, Narcissoside] stands at 3.94

Next:
For reference, reported pKi for O=C(/C=C/c1ccc(O)cc1)c1ccc(O)cc1O stands at 4.01

====

- tested_target: DPP-4 (human recombinant) (Homo sapiens)
- Construct: purchased Sigma Aldrich D3446
- measurement_notes: Inhibition kinetic analysis (V vs [DPP-4], Lineweaver-Burk, Dixon and Cornish-Bowden plots)
- Assay type: biochemical
- condition_description: Cornish-Bowden equation
readout_kind: Kiu (uncompetitive inhibition constant)

Use these answered entries as a reference point.
For reference, reported Kiu (uncompetitive inhibition constant) for O=c1c(O[C@@H]2O[C@H](CO)[C@H](O)[C@H](O)[C@H]2O)c(-c2ccc(O)c(O)c2)oc2cc(O)cc(O)c12 [E4, Hyperoside] stands at 14.8 ± 0.22 10^−5 mol L^−1

For reference, reported Kiu (uncompetitive inhibition constant) for O=C(/C=C/c1ccc(O)cc1)c1ccc(O)cc1O stands at 26.7 ± 0.34 10^−5 mol L^−1

For reference, reported Kiu (uncompetitive inhibition constant) for COc1cc(-c2oc3cc(O)cc(O)c3c(=O)c2O[C@@H]2O[C@H](CO[C@@H]3O[C@@H](C)[C@H](O)[C@@H](O)[C@H]3O)[C@@H](O)[C@H](O)[C@H]2O)ccc1O [E21, Narcissoside] stands at 22.3 ± 0.15 10^−5 mol L^−1

Consider the additional compound presented here.
For reference, reported Kiu (uncompetitive inhibition constant) for OCC1OC(Oc2cc3c(O)cc(O)cc3[o+]c2-c2ccc(O)c(O)c2)C(O)C(O)C1O (stereo not shown) [F2, Cyanidin 3-O-glucoside chloride] stands at 18.37 ± 0.24 10^−5 mol L^−1

====

inhibition at 200 µM by entry:
- tested_target: DPP-4 (human recombinant) (Homo sapiens)
- Construct: purchased Sigma Aldrich D3446
- measurement_notes: In vitro assay for DPP-4 inhibitory activity (fluorescence, Gly-Pro-AMC);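 note: fluorescence of released AMC (excitation 360 nm, emission 460 nm) followed kinetically over 30 min at 37 °C in Tris-HCl pH 8.0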
- Assay type: biochemical
- condition_description: flavonoid 200 μM; mean ± SD, three independent experiments; read-out: % Inhibition at 200μM
# unit: % | format: bare number

Use these answered entries as a reference point.
For reference, reported inhibition at 200 µM for COc1ccc(-c2cc(=O)c3c(O)cc(O[C@@H]4O[C@H](CO[C@@H]5O[C@@H](C)[C@H](O)[C@@H](O)[C@H]5O)[C@@H](O)[C@H](O)[C@H]4O)cc3o2)cc1O [A5, Diosmin] stands at 16.4

For reference, reported inhibition at 200 µM for COc1ccc(-c2coc3cc(O)ccc3c2=O)cc1O [B2, Calycosin] stands at 43

Next:
For reference, reported inhibition at 200 µM for COc1cc(O)c2c(=O)cc(-c3ccc(O)cc3)oc2c1 [B6, Genkwanin] stands at 20.8

For reference, reported inhibition at 200 µM for O=c1c(O)c(-c2ccc(O)cc2O)oc2cc(O)cc(O)c12 [E18, Morin] stands at 42.8

For reference, reported inhibition at 200 µM for COc1cc(O)c2c(=O)c(O)c(-c3ccc(O)c(O)c3)oc2c1 [E27, Rhamnetin] stands at 22.2

For reference, reported inhibition at 200 µM for O=C(O)C1OC(Oc2cc(O)c3c(=O)cc(-c4ccc(O)c(O)c4)oc3c2)C(O)C(O)C1O (stereo not shown) [A9, Luteolin 7-O-glucuronide] stands at 35.6

For reference, reported inhibition at 200 µM for COc1ccc(-c2coc3cc(O)cc(O)c3c2=O)cc1 [B1, Biochanin A] stands at 14.3

For reference, reported inhibition at 200 µM for O=c1cc(-c2ccccc2)oc2cc(O)cc(O)c12 [A3, Chrysin] stands at 26.1

For reference, reported inhibition at 200 µM for COc1ccc(-c2cc(=O)c3c(OC)c(OC)c(OC)c(OC)c3o2)cc1 [A13, Tangeretin] stands at 14.2

For reference, reported inhibition at 200 µM for C[C@@H]1O[C@@H](Oc2cc(O)c3c(=O)c(O[C@@H]4O[C@@H](C)[C@H](O)[C@@H](O)[C@H]4O)c(-c4ccc(O)cc4)oc3c2)[C@H](O)[C@H](O)[C@H]1O [E10, Kaempferitrin] stands at 19.3
